- Test system: Salmonella enterica serovar Typhimurium SL1344
- measurement-description: normalized intracellular growth (luminescence, IQM-normalized) in RAW264.7 macrophages (fraction of plate interquartile mean); higher = more bacterial growth (less inhibition)
- conditions: 10 µM, time point: T3 (3 h)
Over roughly 1,600 compounds, “normalized intracellular growth (luminescence, IQM-normalized) in RAW264.7 macrophages” has its median near 1; the lowest 2% begin near 0.43. The list comes from a sample in which the lowest values are over-represented; it also holds close analogues and randomly drawn compounds.
Rule: normalized intracellular growth under 1 gives NO, otherwise YES.

These recorded examples may help you get a feel for the data.
[[record]]
molecule_smiles = "CCn1cc(C(=O)O)c(=O)c2cc3c(cc21)OCO3"
class = "NO"

[[record]]
molecule_smiles = "CC(=O)[O][Hg][c]1ccccc1"
class = "NO"

[[record]]
molecule_smiles = "Oc1ccc(Cl)cc1Cc1cc(Cl)ccc1O"
class = "YES"

[[record]]
molecule_smiles = "CC[C@@H](C(=O)[C@@H](C)[C@@H](O)[C@H](C)[C@@H]1O[C@@H]([C@@H](CC)C(=O)O)CC[C@@H]1C)[C@H]1O[C@]2(C=C[C@@H](O)[C@]3(CC[C@@](C)([C@H]4CC[C@](O)(CC)[C@H](C)O4)O3)O2)[C@H](C)C[C@@H]1C"
class = "YES"


Problem: Check if normalized intracellular growth >= 1 (inclusive). Item: CN1C[C@H](C(=O)N[C@]2(C)O[C@@]3(O)[C@@H]4CCCN4C(=O)[C@H](Cc4ccccc4)N3C2=O)C=C2c3cccc4[nH]cc(c34)C[C@H]21
Solution: YES

----------
- Tested on: Salmonella enterica serovar Typhimurium SL1344
- measurement-description: normalized intracellular growth (luminescence, IQM-normalized) in RAW264.7 macrophages (fraction of plate interquartile mean); higher = more bacterial growth (less inhibition)
- conditions: 10 µM, time point: T3 (3 h)
The full ranking holds about 1,600 compounds; the median of “normalized intracellular growth (luminescence, IQM-normalized) in RAW264.7 macrophages” is about 1, and the lowest 2% start at about 0.43. What follows is part of a selection rich in the lowest values, with near analogues and random picks from the rest.
observable: normalized intracellular growth
// response body must contain only the number

Look over these answered cases.
[[record]]
molecule_smiles = "CCCCOC(=O)c1ccccc1C(=O)OCCCC"
observable = "normalized intracellular growth"
reported_measurement = 1.03

[[record]]
molecule_smiles = "O=C([O-])Cc1ccccc1.[Na+]"
observable = "normalized intracellular growth"
reported_measurement = 1.15

[[record]]
molecule_smiles = "C[CH2][Hg][S]c1ccccc1C(=O)[O-].[Na+]"
observable = "normalized intracellular growth"
reported_measurement = 0.4

[[record]]
molecule_smiles = "Oc1cc(Cl)ccc1Oc1ccc(Cl)cc1Cl"
observable = "normalized intracellular growth"
reported_measurement = 0.343


Problem: Which normalized intracellular growth value belongs to C=C/C=C\CC1=C(C)[C@@H](OC(=O)[C@@H]2[C@@H](/C=C(\C)C(=O)OC)C2(C)C)CC1=O.C=C/C=C\CC1=C(C)[C@@H](OC(=O)[C@@H]2[C@@H](C=C(C)C)C2(C)C)CC1=O ?
Solution: 1.01

----------
Parameter: normalized intracellular growth. Scope: all listed entries.
- Test system: Salmonella enterica serovar Typhimurium SL1344
- measurement-description: normalized intracellular growth (luminescence, IQM-normalized) in RAW264.7 macrophages (fraction of plate interquartile mean); higher = more bacterial growth (less inhibition)
- conditions: 10 µM, time point: T3 (3 h)
The full ranking holds about 1,600 compounds; the median of “normalized intracellular growth (luminescence, IQM-normalized) in RAW264.7 macrophages” is about 1, and the lowest 2% start at about 0.43. Only a selection was taken, and the lowest values are over-represented in it overall.
Kindly provide the number alone.

Problem: Could you tell me which normalized intracellular growth is on file for Oc1ccc(Cl)cc1 ?
Solution: 1.02

Problem: What does the record list as normalized intracellular growth for OC[C@@H](O)[C@H]1O[C@@H]2O[C@H](C(Cl)(Cl)Cl)O[C@@H]2[C@H]1O ?
Solution: 1.01

Problem: normalized intracellular growth lookup needed for CC([C@H](O)c1ccccc1)N(C)C (some centres undefined) , thanks.
Solution: 0.977

Problem: Can you look up the measured normalized intracellular growth of C#CC(C)(O)CC (centres undefined) for me?
Solution: 0.971
